# credit: patent US20030170309A1

Test: Solubility of the drug alone (crystalline or amorphous)
Conditions: aqueous solution without micelles, thermodynamic from solid, Solubility of Drug 2 in aqueous solution without micelles, crystalline Drug 2; separate experiments
Quantity: solubility

CCOC(=O)N1c2ccc(C(F)(F)F)cc2C(N(Cc2cc(C(F)(F)F)cc(C(F)(F)F)c2)C(=O)OC)CC1CC (stereo not shown) [Drug 2]    ~0.01 µg/mL

###

Experiment: Solubility of the drug alone (crystalline or amorphous)
Conditions: PBS, thermodynamic from solid, Solubility of the crystalline Drug 2
Quantity: solubility (µg/mL)

CCOC(=O)N1c2ccc(C(F)(F)F)cc2C(N(Cc2cc(C(F)(F)F)cc(C(F)(F)F)c2)C(=O)OC)CC1CC (stereo not shown)    0.01

###

Assay: Solubility of the drug alone (crystalline or amorphous)
Conditions: PBS with 2% NaTC/POPC, fassgf or other biorelevant, thermodynamic from solid, Solubility of crystalline Drug 2 in 2% NaTC/POPC in PBS, 2% NaTC/POPC in PBS
Quantity: solubility (µg/mL)

CCOC(=O)N1c2ccc(C(F)(F)F)cc2C(N(Cc2cc(C(F)(F)F)cc(C(F)(F)F)c2)C(=O)OC)CC1CC (stereo not shown) [Drug 2]    6
